The reported measurements were obtained from patent US6040338A.

For each of the compounds below, state its Calculated Activation Rate due to Hydrolysis.
assay notes: Activation by hydrolysis in phosphate buffer
Type: physicochemical
experimental context: 1 mM phosphate buffer, pH 7.4, 37° C.
Number in nmol/mL/min, nothing else.

**Q:** Quote Calculated Activation Rate due to Hydrolysis reported for COc1ccc(OC(=O)N(N(CCCl)S(C)(=O)=O)S(C)(=O)=O)cc1 [Compound 10g] please.
**A:** 0.14

**Q:** Quote Calculated Activation Rate due to Hydrolysis reported for Cc1ccc(OC(=O)N(N(CCCl)S(C)(=O)=O)S(C)(=O)=O)cc1 [Compound 10e] please.
**A:** 0.02

**Q:** Quote Calculated Activation Rate due to Hydrolysis reported for CS(=O)(=O)N(CCCl)N(C(=O)Oc1ccc(Cl)cc1)S(C)(=O)=O [Compound 10f] please.
**A:** 0.06
